Tested on: HIV-1 (IIIB isolate)
Experiment: HIV-1 inhibition (p24 antigen ELISA) in infected H9 lymphocytes
Type: cell-based
Settings: H9 cells; average of at least two experiments
Quick reference for Therapeutic Index (TI = IC50/EC50) among some compounds
measurementType: Therapeutic Index (TI = IC50/EC50)

compound: C=C(C)[C@@H]1CC[C@]2(CO)CC[C@]3(C)[C@H](CC[C@@H]4[C@@]5(C)CC[C@H](O)C(C)(C)[C@@H]5CC[C@]43C)[C@@H]12 [Compound 3, betulin]
studyTarget: HIV-1 (IIIB isolate)
measurementType: Therapeutic Index (TI = IC50/EC50)
dataValue: 1.9
--
compound: C=C(C)[C@@H]1CC[C@]2(COC(=O)CC3(CC(=O)O)CCCC3)CC[C@]3(C)[C@H](CC[C@@H]4[C@@]5(C)CC[C@H](OC(=O)CC6(CC(=O)O)CCCC6)C(C)(C)[C@@H]5CC[C@]43C)[C@@H]12 [Compound 6]
studyTarget: HIV-1 (IIIB isolate)
measurementType: Therapeutic Index (TI = IC50/EC50)
dataValue: 267
--
compound: C=C(C)[C@@H]1CC[C@]2(COC(=O)CC(C)(C)CC(=O)O)CC[C@]3(C)[C@H](CC[C@@H]4[C@@]5(C)CCC(=O)C(C)(C)[C@@H]5CC[C@]43C)[C@@H]12 [Compound 12]
studyTarget: HIV-1 (IIIB isolate)
measurementType: Therapeutic Index (TI = IC50/EC50)
dataValue: 2.9

----------
Experiment: Cytotoxicity: cell counts of mock-infected H9 cells
Format: cell-based
Conditions: human, h9 cells
Quick reference for CC50 at 96 h among some compounds

sampleSmiles: C=C(C)[C@@H]1CC[C@]2(COC(=O)CC(C)(C)CC(=O)O)CC[C@]3(C)[C@H](CC[C@@H]4[C@@]5(C)CC=CC(C)(C)[C@@H]5CC[C@]43C)[C@@H]12
CC50 at 96 h [µM]: 28.3
--
sampleSmiles: C=C(C)[C@@H]1CC[C@]2(COC(=O)CC(C)(C)CC(=O)O)CC[C@]3(C)[C@H](CC[C@@H]4[C@@]5(C)CC[C@H](OC(=O)CC(C)(C)CC(=O)O)C(C)(C)[C@@H]5CC[C@]43C)[C@@H]12
CC50 at 96 h [µM]: 14.2
--
sampleSmiles: CC(C)[C@@H]1CC[C@]2(COC(=O)CC(C)(C)CC(=O)O)CC[C@]3(C)[C@H](CC[C@@H]4[C@@]5(C)CC[C@H](OC(=O)CC(C)(C)CC(=O)O)C(C)(C)[C@@H]5CC[C@]43C)[C@@H]12
CC50 at 96 h [µM]: 10.6
--
sampleSmiles: C=C(C)[C@@H]1CC[C@]2(COC(=O)CC(C)(C)CC(=O)O)CC[C@]3(C)[C@H](CC[C@@H]4[C@@]5(C)CC[C@H](O)C(C)(C)[C@@H]5CC[C@]43C)[C@@H]12
CC50 at 96 h [µM]: 28.2

----------
Experiment: Cytotoxicity: cell counts of mock-infected H9 cells
Assay type: cell-based
Conditions: human, h9 cells
Procedure: The biological evaluation of HIV-1 inhibition was carried out according to established protocols, (Kashiwada, Y., et al., J Med Chem. 39:1016-1017 (1996); Hashimoto, F., et al., Bioorg. & Med Chem. 5:2133-2143 (1997)). […] Toxicity was determined by performing cell counts by a Coulter Counter on the mock-infected H9 cells which had either received culture medium (no toxicity), test sample, or AZT. […]
measurementType: CC50 at 96 h (µM)

compound: C=C(C)[C@@H]1CC[C@]2(COC(=O)CC3(CC(=O)O)CCCC3)CC[C@]3(C)[C@H](CC[C@@H]4[C@@]5(C)CC[C@H](OC(=O)CC6(CC(=O)O)CCCC6)C(C)(C)[C@@H]5CC[C@]43C)[C@@H]12 [Compound 6]
dataValue: 20.5
//
compound: C=C(C)[C@@H]1CC[C@]2(COC(=O)CC(C)(CC)CC(=O)O)CC[C@]3(C)[C@H](CC[C@@H]4[C@@]5(C)CC[C@H](OC(=O)CC(C)(CC)CC(=O)O)C(C)(C)[C@@H]5CC[C@]43C)[C@@H]12 (stereo partly shown) [Compound 5]
dataValue: 18.4
//
compound: CC(C)[C@@H]1CC[C@]2(COC(=O)CC3(CC(=O)O)CCCC3)CC[C@]3(C)[C@H](CC[C@@H]4[C@@]5(C)CC[C@H](OC(=O)CC6(CC(=O)O)CCCC6)C(C)(C)[C@@H]5CC[C@]43C)[C@@H]12 [Compound 10]
dataValue: 21.6
//
compound: C=C(C)[C@@H]1CC[C@]2(COC(=O)CC(C)(C)CC(=O)O)CC[C@]3(C)[C@H](CC[C@@H]4[C@@]5(C)CCC(=O)C(C)(C)[C@@H]5CC[C@]43C)[C@@H]12 [Compound 12]
dataValue: 29.2
